measuredQuantity: melting point

Recorded melting point, per entry:
compound="Cc1cc(OCc2ccc3oc(-c4cccc(C(=O)O)c4)nc3c2)ccc1C(C)C [Compound 5]" measuredquantity="melting point" result="296 to 299 °C"
compound="Cc1ccc2nc(-c3cccc(C(=O)O)c3)oc2c1 [Compound 3]" measuredquantity="melting point" result="239 to 241 °C"
compound="O=C(O)c1cccc(-c2nc3cc(Cl)ccc3o2)c1 [Compound 8]" measuredquantity="melting point" result="296 to 299 °C"
compound="CC(C)c1ccc(NCc2ccc3oc(-c4cccc(C(=O)O)c4)nc3c2)cc1 [Compound 6]" measuredquantity="melting point" result="241 to 244 °C"

Now consider the entry below.
compound O=C(O)c1cccc(-c2nc3cc(-c4ccccc4)ccc3o2)c1 [Compound 4] , melting point observed: 290 to 293 °C
